Measured values drawn from patent US20100298141A1 for this set.

# Tested on: green foxtail
# measurement-description: Test C pre-/postemergence test
# Type: in vivo, Setaria viridis
# experimental-setup: Preemergence, 31 g ai/ha; scale 0 to 100 (0 no effect, 100 complete control)
# Excerpt: Seeds of plant species selected from blackgrass (Alopecurus myosuroides), downy brome (Bromus tectorum), green foxtail (Setaria viridis), Italian ryegrass (Lolium multiflorum), wheat (Triticum aestivum), wild oat (Avena fatua), catchweed bedstraw (Galium aparine), Russian thistle (Salsola kali), […] […]
quantity: Plant response rating, Foxtail, Green

INSERT INTO results (molecule, quantity, quantitative_result) VALUES
  ('Cc1cc[n+]([O-])c(S(=O)(=O)C(Cl)c2c(C(F)(F)F)nn(C)c2OCC(F)(F)F)c1 (racemic)', 'Plant response rating, Foxtail, Green', 0),
  ('Cc1cc[n+]([O-])c([S+]([O-])Cc2c(C(F)(F)F)nn(C)c2Cl)c1 (racemic)', 'Plant response rating, Foxtail, Green', 98),
  ('CC(c1c(C(F)(F)F)nn(C)c1OC(F)F)S(=O)(=O)c1cc(C(C)(C)C)cc[n+]1[O-] (racemic)', 'Plant response rating, Foxtail, Green', 10),
  ('Cn1nc(C(F)(F)F)c(CS(=O)(=O)c2cccc[n+]2[O-])c1OCC(F)(F)F', 'Plant response rating, Foxtail, Green', 85),
  ('Cn1nc(C(F)(F)F)c(CS(=O)(=O)c2ccc(Cl)c[n+]2[O-])c1Cl', 'Plant response rating, Foxtail, Green', 20),
  ('Cc1cc[n+]([O-])c(S(=O)(=O)C(Cl)c2c(C(F)(F)F)nn(C)c2Cl)c1 (racemic)', 'Plant response rating, Foxtail, Green', 100),
  ('CC(C)c1cc[n+]([O-])c([S+]([O-])Cc2c(C(F)(F)F)nn(C)c2OC(F)F)c1 (stereo not shown)', 'Plant response rating, Foxtail, Green', 50);

----------
# Test system: crabgrass
# measurement-description: Test C pre-/postemergence test
# Assay type: in vivo, Digitaria sanguinalis
# experimental-setup: Postemergence, 62 g ai/ha; scale 0 to 100, 0 no effect, 100 complete control
quantity: Plant response rating, Crabgrass, Large

INSERT INTO results (compound, quantity, quantitative_result) VALUES
  ('Cc1cc[n+]([O-])c(S(=O)(=O)Cc2c(C(F)(F)F)nn(C)c2OC(F)F)c1 [Compound 2]', 'Plant response rating, Crabgrass, Large', 0),
  ('Cn1nc(C(F)(F)F)c(C[S+]([O-])c2cccc[n+]2[O-])c1OC(F)F (stereo not shown) [Compound 3]', 'Plant response rating, Crabgrass, Large', 0),
  ('CCn1nc(C(F)(F)F)c(CS(=O)(=O)c2cc(C)cc[n+]2[O-])c1OCC(F)(F)F [Compound 64]', 'Plant response rating, Crabgrass, Large', 0),
  ('Cn1nc(C(F)(F)F)c(C[S+]([O-])c2ccc(Cl)c[n+]2[O-])c1OCC(F)(F)F (racemic) [Compound 62]', 'Plant response rating, Crabgrass, Large', 0);

----------
# Tested on: corn
# measurement-description: Test C pre-/postemergence test
# Type: in vivo, Zea mays
# experimental-setup: Preemergence, 31 g ai/ha; scale 0 to 100 (0 no effect, 100 complete control)
quantity: Plant response rating, Corn

INSERT INTO results (compound, result) VALUES
  ('Cn1nc(C(F)(F)F)c(C[S+]([O-])c2ccc(F)c[n+]2[O-])c1OC(F)F (stereo not shown)', 75),
  ('Cn1nc(C(F)(F)F)c(C(Cl)S(=O)(=O)c2cccc[n+]2[O-])c1OC(F)F (stereo not shown)', 0),
  ('Cn1nc(C(F)(F)F)c(C[S+]([O-])c2ccc(F)c[n+]2[O-])c1OCC(F)(F)F (stereo not shown)', 45),
  ('CC(C)c1cc[n+]([O-])c([S+]([O-])Cc2c(C(F)(F)F)nn(C)c2OC(F)F)c1 (stereo not shown)', 50);

----------
# Test system: giant foxtail
# measurement-description: Test C pre-/postemergence test
# Format: in vivo, Setaria faberii
# experimental-setup: Preemergence, 31 g ai/ha; scale 0 to 100 (0 no effect, 100 complete control)
# Text: Seeds of plant species selected from blackgrass (Alopecurus myosuroides), downy brome (Bromus tectorum), green foxtail (Setaria viridis), Italian ryegrass (Lolium multiflorum), wheat (Triticum aestivum), wild oat (Avena fatua), catchweed bedstraw (Galium aparine), Russian thistle (Salsola kali), […] […]
quantity: Plant response rating, Foxtail, Giant

INSERT INTO measurements (compound, system_under_test, quantity, quantitative_result) VALUES
  ('Cn1nc(C(F)(F)F)c(C[S+]([O-])c2ccc(F)c[n+]2[O-])c1OC(F)F (stereo not shown)', 'giant foxtail', 'Plant response rating, Foxtail, Giant', 40),
  ('Cc1cc[n+]([O-])c(S(=O)(=O)Cc2c(C(F)(F)F)nn(C)c2OCC(F)F)c1', 'giant foxtail', 'Plant response rating, Foxtail, Giant', 90),
  ('Cc1cc[n+]([O-])c(S(=O)(=O)Cc2c(C(F)(F)F)nn(C)c2Cl)c1', 'giant foxtail', 'Plant response rating, Foxtail, Giant', 100),
  ('Cn1nc(C(F)(F)F)c(CS(=O)(=O)c2cccc[n+]2[O-])c1OCC(F)F', 'giant foxtail', 'Plant response rating, Foxtail, Giant', 80);

----------
# Tested on: common sowthistle
# measurement-description: Test F preemergence test
# Format: in vivo, Sonchus oleraceous
# experimental-setup: 125 g ai/ha, preemergence, scale 0 to 100
Reported Sowthistle plant response rating values for a set of compounds
quantity: Sowthistle plant response rating

INSERT INTO assay_data (compound, quantity, quantitative_result) VALUES
  ('CC(Oc1c(C[S+]([O-])c2cccc[n+]2[O-])c(C(F)(F)F)nn1C)C(F)(F)F (centres unmarked)', 'Sowthistle plant response rating', 50),
  ('Cn1nc(C(F)(F)F)c(C[S+]([O-])c2ccc(Cl)c[n+]2[O-])c1OCC(F)(F)F (racemic)', 'Sowthistle plant response rating', 98),
  ('Cn1nc(C(F)(F)F)c(C[S+]([O-])c2cccc[n+]2[O-])c1Cl (centres unmarked)', 'Sowthistle plant response rating', 100),
  ('Cc1cc[n+]([O-])c(S(=O)(=O)C(Cl)c2c(C(F)(F)F)nn(C)c2Cl)c1 (racemic)', 'Sowthistle plant response rating', 100),
  ('Cn1nc(C(F)(F)F)c(C[S+]([O-])c2ccc(F)c[n+]2[O-])c1OCC(F)(F)F (centres unmarked)', 'Sowthistle plant response rating', 100),
  ('CCc1cc[n+]([O-])c(S(=O)(=O)Cc2c(C(F)(F)F)nn(C)c2OCC(F)(F)F)c1', 'Sowthistle plant response rating', 100),
  ('Cc1cc[n+]([O-])c(S(=O)(=O)Cc2c(C(F)(F)F)nn(C)c2Cl)c1', 'Sowthistle plant response rating', 95),
  ('CCn1nc(C(F)(F)F)c(CS(=O)(=O)c2cc(C)cc[n+]2[O-])c1OCC(F)(F)F', 'Sowthistle plant response rating', 100);

----------
# Tested on: blackgrass
# measurement-description: Test C pre-/postemergence test
# Type: in vivo, Alopecurus myosuroides
# experimental-setup: preemergence, 125 g ai/ha; scale 0 (no effect) to 100 (complete control)
Reported Blackgrass plant response rating values for a set of compounds
quantity: Blackgrass plant response rating

INSERT INTO assay_data (compound, quantity, quantitative_result) VALUES
  ('Cn1nc(C(F)(F)F)c(C[S+]([O-])c2cccc[n+]2[O-])c1OC(F)F (stereo not drawn)', 'Blackgrass plant response rating', 100),
  ('Cn1nc(C(F)(F)F)c(C[S+]([O-])c2cccc[n+]2[O-])c1OCC(F)(F)F (racemic)', 'Blackgrass plant response rating', 100),
  ('CC(c1c(C(F)(F)F)nn(C)c1OCC(F)(F)F)S(=O)(=O)c1cccc[n+]1[O-] (racemic)', 'Blackgrass plant response rating', 100),
  ('Cn1nc(C(F)(F)F)c(CS(=O)(=O)c2cccc[n+]2[O-])c1Cl', 'Blackgrass plant response rating', 50),
  ('Cc1cc[n+]([O-])c([S+]([O-])Cc2c(C(F)(F)F)nn(C)c2Cl)c1 (racemic)', 'Blackgrass plant response rating', 100),
  ('Cn1nc(C(F)(F)F)c(C[S+]([O-])c2ccc(Br)c[n+]2[O-])c1OC(F)F (racemic)', 'Blackgrass plant response rating', 50),
  ('CC(c1c(C(F)(F)F)nn(C)c1OC(F)F)S(=O)(=O)c1cc(C(C)(C)C)cc[n+]1[O-] (racemic)', 'Blackgrass plant response rating', 100),
  ('Cc1cc[n+]([O-])c(S(=O)(=O)Cc2c(C(F)(F)F)nn(C)c2OC(F)F)c1', 'Blackgrass plant response rating', 80),
  ('Cn1nc(C(F)(F)F)c(CS(=O)(=O)c2cccc[n+]2[O-])c1OCC(F)(F)F', 'Blackgrass plant response rating', 100);
